Value source: ChEMBL document CHEMBL1961873

# key: entry, value: inhibition
# measurement target: ALK tyrosine kinase receptor (Homo sapiens) (UniProt Q9UM73)
# Sequence (Q9UM73 19-1620 limits assumed): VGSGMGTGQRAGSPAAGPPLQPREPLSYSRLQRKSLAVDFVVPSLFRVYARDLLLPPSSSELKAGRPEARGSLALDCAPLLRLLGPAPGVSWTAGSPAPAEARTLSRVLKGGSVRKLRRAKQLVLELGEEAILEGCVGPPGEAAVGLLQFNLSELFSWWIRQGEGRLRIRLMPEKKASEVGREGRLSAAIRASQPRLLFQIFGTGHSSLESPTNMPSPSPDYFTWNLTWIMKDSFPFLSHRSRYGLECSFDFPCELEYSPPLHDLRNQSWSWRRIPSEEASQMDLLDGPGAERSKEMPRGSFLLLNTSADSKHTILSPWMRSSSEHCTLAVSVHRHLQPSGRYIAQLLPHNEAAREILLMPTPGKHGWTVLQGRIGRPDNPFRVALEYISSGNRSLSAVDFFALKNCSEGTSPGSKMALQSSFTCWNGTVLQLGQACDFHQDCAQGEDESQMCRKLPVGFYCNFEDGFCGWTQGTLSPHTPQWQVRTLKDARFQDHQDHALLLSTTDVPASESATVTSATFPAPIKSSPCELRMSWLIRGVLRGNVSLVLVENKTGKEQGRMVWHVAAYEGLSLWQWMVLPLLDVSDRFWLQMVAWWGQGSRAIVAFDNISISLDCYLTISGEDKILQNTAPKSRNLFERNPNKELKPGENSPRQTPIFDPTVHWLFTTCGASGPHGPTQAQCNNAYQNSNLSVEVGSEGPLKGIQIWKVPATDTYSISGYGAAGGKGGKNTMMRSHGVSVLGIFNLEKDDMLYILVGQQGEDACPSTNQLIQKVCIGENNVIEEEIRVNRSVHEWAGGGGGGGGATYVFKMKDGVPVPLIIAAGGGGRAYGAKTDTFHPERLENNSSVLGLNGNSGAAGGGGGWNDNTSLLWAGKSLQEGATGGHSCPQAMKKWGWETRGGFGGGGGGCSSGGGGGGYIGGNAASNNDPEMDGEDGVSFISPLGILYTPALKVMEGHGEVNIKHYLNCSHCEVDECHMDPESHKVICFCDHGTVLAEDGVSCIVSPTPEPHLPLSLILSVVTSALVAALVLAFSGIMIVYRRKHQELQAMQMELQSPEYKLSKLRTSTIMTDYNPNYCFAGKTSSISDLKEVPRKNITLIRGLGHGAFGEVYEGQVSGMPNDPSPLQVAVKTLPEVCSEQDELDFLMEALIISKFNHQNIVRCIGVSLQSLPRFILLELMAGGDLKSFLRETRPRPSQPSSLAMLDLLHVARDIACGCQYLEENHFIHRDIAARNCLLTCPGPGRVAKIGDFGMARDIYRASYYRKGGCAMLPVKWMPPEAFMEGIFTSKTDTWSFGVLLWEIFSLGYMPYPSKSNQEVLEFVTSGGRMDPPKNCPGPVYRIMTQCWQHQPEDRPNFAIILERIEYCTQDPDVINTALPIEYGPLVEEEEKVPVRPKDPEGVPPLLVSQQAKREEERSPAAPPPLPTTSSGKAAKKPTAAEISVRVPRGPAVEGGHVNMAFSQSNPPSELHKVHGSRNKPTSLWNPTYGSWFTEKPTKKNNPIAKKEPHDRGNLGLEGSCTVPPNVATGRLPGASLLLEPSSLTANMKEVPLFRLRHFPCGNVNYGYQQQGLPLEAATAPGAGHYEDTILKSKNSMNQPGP
# experimental conditions: at 0.1 µM
# Description: GSK_PKIS: ALK mean inhibition at 0.1 uM [Nanosyn]
Write the value in % as a bare number.

Sample records with inhibition:
smiles code: CS(=O)(=O)CCNCc1ccc(-c2ccc3ncnc(Nc4ccc(OCc5cccc(F)c5)c(C(F)(F)F)c4)c3c2)o1
observed measurement: 1.6

smiles code: COc1ccc(-c2coc3ncnc(N)c23)cc1
observed measurement: 4.4

smiles code: Nc1nc(-c2ccc3c(c2)C(=Cc2cc(Br)c(O)c(Br)c2)C(=O)N3)cs1
observed measurement: -1.31

smiles code: CCCN1CCC(Oc2cc(Nc3nc(Nc4cccc(F)c4C(N)=O)c4cc[nH]c4n3)c(OC)cc2Cl)CC1
observed measurement: 55.7

smiles code: Cc1nn(C)c2cc(N(C)c3ccnc(Nc4cccc(S(N)(=O)=O)c4)n3)ccc12
observed measurement: 3.45

smiles code: CCn1c(-c2nonc2N)nc2ccncc21
observed measurement: 1.59

Tell me the measured inhibition of COc1cccc(-n2ncc3c(N/N=C/c4cccc(F)c4)ncnc32)c1 , please.
-1.54

Could you share which inhibition value was measured for CCN1CCC(CC(=O)Nc2n[nH]c3nc(-c4cccs4)c(Br)cc23)CC1 ?
-2.08

Could you share which inhibition value was measured for NC(=O)c1cccc(Nc2nccc(Nc3cccc4[nH]ncc34)n2)c1 ?
-0.3

# query: inhibition of entry CC(C)=Cc1cccc2c1/C(=N/Nc1ccc(S(N)(=O)=O)cc1)C(=O)N2
2.57

----------
The entries below come with measured inhibition values attached.
# measurement target: Serine/threonine-protein kinase DCLK2 (Homo sapiens) (UniProt Q8N568);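 further: reported value is the mean percent inhibition of DCAMKL2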
# Sequence (whole entry): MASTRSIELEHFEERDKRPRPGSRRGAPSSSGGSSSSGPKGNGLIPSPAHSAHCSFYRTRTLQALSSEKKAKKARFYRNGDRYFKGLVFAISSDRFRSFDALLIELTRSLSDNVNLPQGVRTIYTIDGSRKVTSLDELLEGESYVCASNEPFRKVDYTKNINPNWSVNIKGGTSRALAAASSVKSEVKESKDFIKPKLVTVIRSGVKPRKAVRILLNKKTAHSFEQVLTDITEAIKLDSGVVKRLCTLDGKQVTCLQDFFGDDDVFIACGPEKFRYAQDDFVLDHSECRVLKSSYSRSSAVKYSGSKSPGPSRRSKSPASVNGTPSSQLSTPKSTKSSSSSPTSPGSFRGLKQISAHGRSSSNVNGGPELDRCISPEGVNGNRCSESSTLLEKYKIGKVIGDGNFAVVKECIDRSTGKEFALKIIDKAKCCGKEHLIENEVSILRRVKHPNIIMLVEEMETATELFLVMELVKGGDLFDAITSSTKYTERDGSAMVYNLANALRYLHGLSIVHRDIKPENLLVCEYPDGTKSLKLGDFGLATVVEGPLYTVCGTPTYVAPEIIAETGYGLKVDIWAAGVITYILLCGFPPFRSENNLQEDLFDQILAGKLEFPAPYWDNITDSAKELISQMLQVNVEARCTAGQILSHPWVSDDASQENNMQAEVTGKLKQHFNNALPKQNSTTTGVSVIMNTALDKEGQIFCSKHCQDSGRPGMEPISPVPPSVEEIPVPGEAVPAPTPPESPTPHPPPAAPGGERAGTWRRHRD
# experimental conditions: at 0.1 µM
# unit: % | format: bare number

These solved cases illustrate the format of a correct answer.
smiles code: NS(=O)(=O)c1ccc(N/N=C2\C(=O)Nc3ccc(C(=O)NCCc4c[nH]cn4)cc32)cc1
scale unit: %
inhibition: 1.45

smiles code: O=C1NC(=O)C(N2CCc3ccccc32)=C1c1ccc(Cl)cc1
scale unit: %
inhibition: 1.5

smiles code: Cc1ccc(C(=O)NC2CCCCC2)cc1-c1ccc(C(=O)NCC2CC2)cc1
scale unit: %
inhibition: 3.45

smiles code: COc1cccc(-n2ncc3c(N/N=C/c4cccc(F)c4)ncnc32)c1
scale unit: %
inhibition: -4.3

smiles code: COc1ccc(-c2nn3ncccc3c2-c2ccnc(Nc3ccc(Cl)c(C(F)(F)F)c3)n2)cc1
scale unit: %
inhibition: 1.74

smiles code: CS(=O)(=O)CCNCc1ccc(-c2ccc3ncnc(Nc4ccc(OCc5ccccc5)c(Cl)c4)c3c2)o1
scale unit: %
inhibition: -1.35

smiles code: O=C1NC(=O)C(c2ccccc2Cl)=C1Nc1cccc(O)c1
scale unit: %
inhibition: -0.07

smiles code: O=C1NC(=O)C(c2cccc(Cl)c2)=C1Nc1ccc(O)c(Cl)c1
scale unit: %
inhibition: -0.44

Would you kindly share the measured inhibition for COc1ccc(-c2coc3ncnc(N)c23)cc1 ?
0.87

Item under review: Cc1ccc(NC(=O)c2ccnc(N3CCCC3)c2)cc1-c1ccc(C(=O)NCC2CC2)cc1 . Reported inhibition?
-1.99

Name the reported inhibition value associated with the compound Nc1nc(-c2ccc3c(c2)C(=Cc2cc(Br)c(O)c(Br)c2)C(=O)N3)cs1
-3.76

Sample Cc1nn(C)c2cc(N(C)c3ccnc(Nc4cccc(S(N)(=O)=O)c4)n3)ccc12 — what was its inhibition?
0.57

----------
# measurement target: Protein kinase C iota type (Homo sapiens);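 further: reported figures are mean inhibition values from the GSK PKIS screen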
# experimental conditions: at 1 µM
measured property: inhibition (%)
Please state the figure in %; there is no need to write the unit.

molecule: CCCN1CCC(Oc2cc(Nc3nc(Nc4cccc(F)c4C(N)=O)c4cc[nH]c4n3)c(OC)cc2Cl)CC1
inhibition (%): 1.06

Given COc1cc2ncn(-c3cc(O[C@H](C)c4ccccc4Cl)c(C(N)=O)s3)c2cc1OC , state its recorded inhibition.
0.22

For the molecule COc1cc(C=NNc2ncnc3c2cnn3-c2ccccc2)ccc1O , what inhibition is on record?
5.26

For the molecule shown here, Cc1nnc(-c2ccc(C)c(-c3ccc(C(=O)Nc4cccc(C#N)c4)cc3)c2)o1 , give the reported inhibition.
-1.05

State the recorded inhibition for this entry: COc1ccc2cc(-c3c(-c4ccncc4)nc(-c4ccc([S+](C)[O-])cc4)n3C)ccc2c1 (stereo not given)
2.02

# input molecule: CCn1c(-c2nonc2N)nc2ccncc21 ; wanted: its inhibition
1.92

Query (molecule): CC(C)=Cc1cccc2c1/C(=N/Nc1ccc(S(N)(=O)=O)cc1)C(=O)N2 ; field requested: inhibition
0.09

I'd like to know its inhibition. The molecule in question is CCCN1CCC=C(c2ccc(Nc3nc(Nc4ccccc4C(N)=O)c4cc[nH]c4n3)c(C)c2)C1
1.27

I have this molecule here, CCc1cccc(NC(=O)Nc2ccc(Oc3ccc4nc(NC(=O)OC)[nH]c4c3)cc2)c1 , and I need its recorded inhibition.
-1.58

Fill in: inhibition of COc1ccc(-c2ccncc2)cc1C(N)=O is ___
1.27

----------
Each entry below lists one item and its recorded inhibition value.
# measurement target: Glycogen synthase kinase-3 beta (Homo sapiens);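 further: reported values are mean percent inhibition of GSK3B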
# experimental conditions: at 1 µM
Don't forget the unit after the number, please.

Consider the reported inhibition for these compounds:
compound: Cc1ccc(NC(=O)c2ccnc(N3CCCC3)c2)cc1-c1ccc(C(=O)NCC2CC2)cc1
inhibition: 3.68%
//
compound: CCn1c(-c2nonc2N)nc2c(C#CC(C)(C)O)nc(CN3CCCC3)cc21
inhibition: 18.9%
//
compound: NCc1ccc(-c2nc(-c3ccc(Cl)c(O)c3)c(-c3ccncc3)[nH]2)cc1
inhibition: 65.4%
//
compound: CC1=C(C(=O)Nc2ccc3[nH]ncc3c2)C(c2ccc(F)cc2)NC(=O)N1 (stereo not given)
inhibition: 1.6%
//
compound: Cc1cc(O)cc(C)c1/C=C/c1cncc(-c2nn[nH]n2)c1
inhibition: 2.36%
//
compound: CCn1c(-c2nonc2N)nc2cnc(Oc3cccc(NC(=O)c4ccc(OCCN5CCOCC5)cc4)c3)cc21
inhibition: 53.9%
//
compound: Cc1ccc(C(=O)NC2CCCCC2)cc1-c1ccc(C(=O)NCC2CC2)cc1
inhibition: 0.33%
//
compound: CCN1CCC(CC(=O)Nc2n[nH]c3nc(-c4cccs4)c(Br)cc23)CC1
inhibition: 68.7%
//
compound: c1cnn2ncc(-c3ccnc(Nc4ccc5c(c4)OCCO5)n3)c2c1
inhibition: 91%
//
compound: COc1cc(C=NNc2ncnc3c2cnn3-c2ccccc2)ccc1O
inhibition: 78.1%

Next compound, please.
# get_value(readout='inhibition', item= N#Cc1c(NC(=O)c2cccc3ccccc23)sc2c1CCCC2 )
6.89%

----------
# measurement target: Calcium/calmodulin-dependent protein kinase type II subunit alpha (Homo sapiens)
# experimental conditions: at 1 µM
measured property: inhibition (%)
Express the result in % but write the number alone.

Here's what some known entries look like.
smiles code: O=C1NC(=O)C(N2CCc3ccccc32)=C1c1ccc(Cl)cc1
measurement target: Calcium/calmodulin-dependent protein kinase type II subunit alpha (Homo sapiens)
inhibition / %: 2.12
--
smiles code: COc1cc2ncn(-c3cc(O[C@H](C)c4ccccc4Cl)c(C(N)=O)s3)c2cc1OC
measurement target: Calcium/calmodulin-dependent protein kinase type II subunit alpha (Homo sapiens)
inhibition / %: 7.42
--
smiles code: Cc1cc(O)cc(C)c1/C=C/c1cncc(-c2nn[nH]n2)c1
measurement target: Calcium/calmodulin-dependent protein kinase type II subunit alpha (Homo sapiens)
inhibition / %: 3.79
--
smiles code: NC(=O)c1cccc(Nc2nccc(Nc3cccc4[nH]ncc34)n2)c1
measurement target: Calcium/calmodulin-dependent protein kinase type II subunit alpha (Homo sapiens)
inhibition / %: -1.01
--
smiles code: CC(=O)Nc1cccc(C#Cc2cncnc2Nc2ccc(OCc3cccc(F)c3)c(Cl)c2)n1
measurement target: Calcium/calmodulin-dependent protein kinase type II subunit alpha (Homo sapiens);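 further: reported value is a mean percent inhibition of CAMK2A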
inhibition / %: 1.27

Next item in the queue.
Given O=C1Nc2ccc(C(=O)c3ccco3)cc2C1=Cc1cc(Cl)c(O)c(Cl)c1 , state its recorded inhibition.
8
